System: isolated paced intact rabbit atria
Assay Info: Cardiac depressant (negative inotropic) effect in isolated paced rabbit atria
Measurement Parameters: Oryctolagus cuniculus; rabbit atria paced at 3Hz, 30°C, cumulative dosing; read-out: IC25 (concentration which produces 25% inhibition of isometric force)
Measurement Kind: IC25 (µM)

In [3]: df
Out[3]:
                                   molecule                       system_tested  result_operator  obs_value
0  CC1=C(C(=O)OCCc2ccccc2)C(c2c(F)c(F)c(F)c(F)c2F)C2=C(CNCC2=O)N1 (stereo not shown)  isolated paced intact rabbit atria                =          1
1  CC1=C(C(=O)OCCOc2ccccc2)C(c2ccccc2C)C2=C(CNCC2=O)N1 (stereo not shown)  isolated paced intact rabbit atria                =        4.7
2  CC1=C(C(=O)OCCOc2ccccc2)C(c2c(F)ccc(Cl)c2Cl)C2=C(CNCC2=O)N1 (stereo not shown)  isolated paced intact rabbit atria                =         10
3  COC(COC(=O)C1=C(C)NC2=C(C(=O)CNC2)C1c1cccc(Cl)c1C)c1ccccc1 (stereo not shown)  isolated paced intact rabbit atria                >         10

====

Test system: spontaneously hypertensive rats
Assay Info: Hypotensive effect: systolic blood pressure of spontaneously hypertensive rats
Assay type: in vivo
Measurement Parameters: dose 25mg/kg oral; at 1.5 hours; mmHg per method
Experimental: The hypotensive in vivo effect of the compounds of this invention was determined by measuring changes in the systolic blood pressure of spontaneously hypertensive rats with a Decker Caudal Plethysmograph. The compound being tested was administered to a group of 4 rats and their systolic pressure was determined prior to and at 1.5 and 4 hours after compound administration. […] Results (mmHg) are expressed as decreases in systolic blood pressure. […]
Measurement Kind: B.P. (systolic blood pressure reduction) (mm)

                                   molecule  unit_name  obs_value
0  CC1=C(C(=O)OCCOc2cccc(Cl)c2Cl)C(c2c(F)ccc(Cl)c2Cl)C2=C(CNCC2=O)N1 (stereo not drawn)         mm        -74
1  CC1=C(C(=O)OCCOc2ccccc2)C(c2c(F)c(F)c(F)c(F)c2F)C2=C(CNCC2=O)N1 (single isomer, unassigned; (-))         mm         -6
2  CC1=C(C(=O)OCCOc2ccccc2)C(c2c(F)ccc(C)c2Cl)C2=C(CNCC2=O)N1 (stereo not drawn)         mm        -22
3  CC1=C(C(=O)OCCOc2cccc(Cl)c2Cl)C(c2c(F)c(F)c(F)c(F)c2F)C2=C(CNCC2=O)N1 (stereo not drawn)         mm        -37
4  CC1=C(C(=O)OCC(C)(C)Oc2ccccc2)C(c2c(F)c(F)c(F)c(F)c2F)C2=C(CNCC2=O)N1 (stereo not drawn)         mm        -64
5  CC1=C(C(=O)OCCOc2ccccc2)C(c2cccc(Cl)c2C)C2=C(CNCC2=O)N1 (stereo not drawn)         mm        -10
6  COC(COC(=O)C1=C(C)NC2=C(C(=O)CNC2)C1c1ccccc1C(F)(F)F)c1ccccc1 (stereo not drawn)         mm        -56
7  CC1=C(C(=O)OCCOc2ccccc2)C(c2ccccc2C)C2=C(CNCC2=O)N1 (stereo not drawn)         mm        -29
8  CC1=C(C(=O)OCCOc2ccccc2)C(c2c(F)ccc(F)c2F)C2=C(CNCC2=O)N1 (stereo not drawn)         mm        -37

====

System: spontaneously hypertensive rats
Assay Info: Hypotensive effect: systolic blood pressure of spontaneously hypertensive rats
Type: in vivo
Measurement Parameters: dose 25mg/kg oral; at 4 hours; mmHg per method
Measurement Kind: B.P. (systolic blood pressure reduction) (mm)

>>> df
                                   compound                    system_tested  obs_value
0  CC1=C(C(=O)OCCOc2ccccc2)C(c2c(F)ccc(C)c2Cl)C2=C(CNCC2=O)N1 (centres unmarked) [Example 23]  spontaneously hypertensive rats        -31
1  CC1=C(C(=O)OCCOc2cccc(Cl)c2Cl)C(c2c(F)ccc(Cl)c2Cl)C2=C(CNCC2=O)N1 (centres unmarked) [Example 25]  spontaneously hypertensive rats        -70
2  COC(COC(=O)C1=C(C)NC2=C(C(=O)CNC2)C1c1ccccc1C(F)(F)F)c1ccccc1 (centres unmarked) [Example 12]  spontaneously hypertensive rats        -56
3  CC1=C(C(=O)OCCOc2cccc(Cl)c2Cl)C(c2c(F)c(F)c(F)c(F)c2F)C2=C(CNCC2=O)N1 (centres unmarked) [Example 22]  spontaneously hypertensive rats        -52
4  CC1=C(C(=O)OCCOc2ccccc2)C(c2c(F)c(F)c(F)c(F)c2F)C2=C(CNCC2=O)N1 (single isomer, unassigned; (-)) [Example 3]  spontaneously hypertensive rats        -14
5  CC1=C(C(=O)OCCOc2ccccc2)C(c2ccccc2C)C2=C(CNCC2=O)N1 (centres unmarked) [Example 15]  spontaneously hypertensive rats        -39
6  CC1=C(C(=O)OCCOc2ccccc2)C(c2cccc(Cl)c2C)C2=C(CNCC2=O)N1 (centres unmarked) [Example 17]  spontaneously hypertensive rats        -45
7  CC1=C(C(=O)OCCCCOc2ccccc2)C(c2c(F)c(F)c(F)c(F)c2F)C2=C(CNCC2=O)N1 (centres unmarked) [Example 21]  spontaneously hypertensive rats        -49

====

System Tested: Ca^+2-calmodulin dependent myosin light chain phosphorylation (Bos taurus, UniProt Q28824)
Assay Info: Inhibition of myosin light chain phosphorylation (MLCP), Silver et al.
Type: biochemical
Measurement Parameters: 25µM; read-out: Antag. of MLCP (percent inhibition of myosin light chain phosphorylation)
inhibition at 25 µM overview
Measurement Kind: inhibition at 25 µM

>>> print(df.to_string())
                                    molecule                             system_tested     measurement_kind  obs_value
 0  COC(COC(=O)C1=C(C)NC2=C(C(=O)CNC2)C1c1cccc(Cl)c1Cl)c1ccccc1 (centres unmarked) [Example 1]  Ca^+2-calmodulin dependent myosin light chain phosphorylation (Bos taurus, UniProt Q28824)  inhibition at 25 µM        38%
 1  CC1=C(C(=O)OCCc2ccccc2)C(c2c(F)c(F)c(F)c(F)c2F)C2=C(CNCC2=O)N1 (centres unmarked) [Example 18]  Ca^+2-calmodulin dependent myosin light chain phosphorylation (Bos taurus, UniProt Q28824)  inhibition at 25 µM        35%
 2  CC1=C(C(=O)OCCOc2cccc(Cl)c2Cl)C(c2c(F)c(F)c(F)c(F)c2F)C2=C(CNCC2=O)N1 (centres unmarked) [Example 22]  Ca^+2-calmodulin dependent myosin light chain phosphorylation (Bos taurus, UniProt Q28824)  inhibition at 25 µM        54%
 3  COC(COC(=O)C1=C(C)NC2=C(C(=O)CNC2)C1c1c(F)c(F)c(F)c(F)c1F)c1ccccc1 (centres unmarked) [Example 5]  Ca^+2-calmodulin dependent myosin light chain phosphorylation (Bos taurus, UniProt Q28824)  inhibition at 25 µM        21%
 4  CC1=C(C(=O)OC(C)COc2ccccc2)C(c2c(F)c(F)c(F)c(F)c2F)C2=C(CNCC2=O)N1 (centres unmarked) [Example 13]  Ca^+2-calmodulin dependent myosin light chain phosphorylation (Bos taurus, UniProt Q28824)  inhibition at 25 µM        58%
 5  CC1=C(C(=O)OCC2COc3ccccc3O2)C(c2c(F)c(F)c(F)c(F)c2F)C2=C(CNCC2=O)N1 (centres unmarked) [Example 14]  Ca^+2-calmodulin dependent myosin light chain phosphorylation (Bos taurus, UniProt Q28824)  inhibition at 25 µM        59%
 6  CC1=C(C(=O)OCCOc2ccccc2)C(c2c(F)ccc(Cl)c2Cl)C2=C(CNCC2=O)N1 (centres unmarked) [Example 24]  Ca^+2-calmodulin dependent myosin light chain phosphorylation (Bos taurus, UniProt Q28824)  inhibition at 25 µM         8%
 7  CC1=C(C(=O)OCCOc2cccc(Cl)c2Cl)C(c2c(F)ccc(Cl)c2Cl)C2=C(CNCC2=O)N1 (centres unmarked) [Example 25]  Ca^+2-calmodulin dependent myosin light chain phosphorylation (Bos taurus, UniProt Q28824)  inhibition at 25 µM        48%
 8  CC1=C(C(=O)OCCOc2ccccc2)C(c2cccc(Cl)c2C)C2=C(CNCC2=O)N1 (centres unmarked) [Example 17]  Ca^+2-calmodulin dependent myosin light chain phosphorylation (Bos taurus, UniProt Q28824)  inhibition at 25 µM        39%
 9  COC(COC(=O)C1=C(C)NC2=C(C(=O)CNC2)C1c1cccc(Cl)c1C)c1ccccc1 (centres unmarked) [Example 10]  Ca^+2-calmodulin dependent myosin light chain phosphorylation (Bos taurus, UniProt Q28824)  inhibition at 25 µM        35%
10  CC1=C(C(=O)OCCOc2ccccc2)C(c2c(F)c(F)c(F)c(F)c2F)C2=C(CNCC2=O)N1 (racemic) [Example 2]  Ca^+2-calmodulin dependent myosin light chain phosphorylation (Bos taurus, UniProt Q28824)  inhibition at 25 µM        24%
